Catalogue of REVEAL 0 hrs (% of positive control signal) values
target: T1, HLA DQA1*0101:DQB1*0501; experiment: REVEAL class II binding assay (cell-free)
T1 chain 1: not shown
T1 chain 2: not shown
Number only, please.

Sample records with REVEAL 0 hrs (% of positive control signal):
SGAAGAAVKGVGTMV (modifications not checked) [Peptide #6 (Common CP sequence)]
0
ALNRGSGSGIITSDA (modifications not checked) [Peptide #17 (Hemagglutinin fragment)]
0
LTVAAWSVKTSPLNM (modifications not checked) [Peptide #13 (Reverse of #10)]
0.3
EKATNPIVPSFDMSN (modifications not checked) [Peptide #7 (Common CP sequence)]
0

I am curious: what REVEAL 0 hrs (% of positive control signal) value has been reported for AMERNAGSGIIISDT (modifications not checked) [Peptide #16 (Hemagglutinin fragment)] ? 0.1

Bench note: what REVEAL 0 hrs (% of positive control signal) did RELILYDKEEIRRIWRQANNG (modifications not checked) [Peptide #1 (X179-A NP fragment)] show? 27.8

What does the record list as REVEAL 0 hrs (% of positive control signal) for ALSRGFGSGIITSNA (modifications not checked) [Peptide #18 (Hemagglutinin fragment)] ? 0
